# platelet count values compiled below
assay: Cynomolgus monkeys: hematology assays (Example 29); format: in vivo; settings: day 64
In the oligonucleotide strings, read from the 5' end, every base follows the letter of its sugar. An asterisk marks phosphorothioate; unmarked linkages are phosphodiester. Other units and linkages are bracketed, terminal groups are in braces. A string of capitals states the bases alone. e = 2'-O-(2-methoxyethyl) (MOE); [5mC] = 5-methylcytosine; d = 2'-deoxy (DNA)
Measure name: platelet count (µL⁻¹)

INSERT INTO results (substance, result) VALUES
  ('ISIS 416850: gapmer of Table 8 (antisense eT*eG*e[5mC]*eA*e[5mC]*dA*dG*dT*dT*dT*d[5mC]*dT*dG*dG*d[5mC]*eA*eG*eG*e[5mC]*e[5mC])', 496000),
  ('ISIS 417002: gapmer of Table 8 (antisense eG*eG*dT*dG*d[5mC]*dA*d[5mC]*dA*dG*dT*dT*dT*d[5mC]*dT*dG*eG*e[5mC]*eA*eG*eG)', 436000),
  ('ISIS 416838: gapmer of Table 6 (antisense eG*e[5mC]*eA*eA*e[5mC]*d[5mC]*dG*dG*dG*dA*dT*dG*dA*dT*dG*eA*eG*eT*eG*e[5mC])', 358000),
  ('ISIS 416864: gapmer of Table 8 (antisense eG*eG*e[5mC]*eA*eG*d[5mC]*dG*dG*dA*d[5mC]*dG*dG*d[5mC]*dA*dT*eT*eG*eG*eT*eG)', 383000),
  ('ISIS 416858: gapmer of Table 8 (antisense eA*e[5mC]*eG*eG*e[5mC]*dA*dT*dT*dG*dG*dT*dG*d[5mC]*dA*d[5mC]*eA*eG*eT*eT*eT)', 295000);

###

test: Cynomolgus monkeys: hematology assays (Example 29); type: in vivo; settings: day 15
In the oligonucleotide strings, read from the 5' end, every base follows the letter of its sugar. An asterisk marks phosphorothioate; unmarked linkages are phosphodiester. Other units and linkages are bracketed, terminal groups are in braces. A string of capitals states the bases alone. e = 2'-O-(2-methoxyethyl) (MOE); [5mC] = 5-methylcytosine; d = 2'-deoxy (DNA)
Is platelet count at least 400000 µL⁻¹? Then Condition met. If not, Condition not met.

INSERT INTO measurements (substance, class_name) VALUES
  ('ISIS 416838: gapmer of Table 6 (antisense eG*e[5mC]*eA*eA*e[5mC]*d[5mC]*dG*dG*dG*dA*dT*dG*dA*dT*dG*eA*eG*eT*eG*e[5mC])', 'Condition not met'),
  ('ISIS 416864: gapmer of Table 8 (antisense eG*eG*e[5mC]*eA*eG*d[5mC]*dG*dG*dA*d[5mC]*dG*dG*d[5mC]*dA*dT*eT*eG*eG*eT*eG)', 'Condition met'),
  ('ISIS 416850: gapmer of Table 8 (antisense eT*eG*e[5mC]*eA*e[5mC]*dA*dG*dT*dT*dT*d[5mC]*dT*dG*dG*d[5mC]*eA*eG*eG*e[5mC]*e[5mC])', 'Condition met');

###

system: human Factor XI mRNA; test: Dose-dependent inhibition in HepG2 cells, lipofectin (Example 5); format: cell-based; details: 4.69 nM, 16 hours
Measure name: percent inhibition of human Factor XI mRNA, relative to untreated control cells (%)

INSERT INTO assay_data (substance, units_symbol, result) VALUES
  ('416892 (antisense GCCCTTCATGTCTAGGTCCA; 3-14-3 chimeric gapmer, wing sugar chemistry not given here, further chemistry not given here) [compound 416892]', '%', 34),
  ('416925 (antisense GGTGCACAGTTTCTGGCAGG; 3-14-3 chimeric gapmer, wing sugar chemistry not given here, further chemistry not given here) [compound 416925]', '%', 34),
  ('416999 (antisense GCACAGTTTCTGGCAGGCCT; 2-13-5 gapmer, wing sugar chemistry not given here, further chemistry not given here) [compound 416999]', '%', 26);

Data origin, for the record: patent US20120083522A1
